target: Cytochrome P450 3A4 (Homo sapiens, UniProt P08684)
Sequence (P08684 whole entry): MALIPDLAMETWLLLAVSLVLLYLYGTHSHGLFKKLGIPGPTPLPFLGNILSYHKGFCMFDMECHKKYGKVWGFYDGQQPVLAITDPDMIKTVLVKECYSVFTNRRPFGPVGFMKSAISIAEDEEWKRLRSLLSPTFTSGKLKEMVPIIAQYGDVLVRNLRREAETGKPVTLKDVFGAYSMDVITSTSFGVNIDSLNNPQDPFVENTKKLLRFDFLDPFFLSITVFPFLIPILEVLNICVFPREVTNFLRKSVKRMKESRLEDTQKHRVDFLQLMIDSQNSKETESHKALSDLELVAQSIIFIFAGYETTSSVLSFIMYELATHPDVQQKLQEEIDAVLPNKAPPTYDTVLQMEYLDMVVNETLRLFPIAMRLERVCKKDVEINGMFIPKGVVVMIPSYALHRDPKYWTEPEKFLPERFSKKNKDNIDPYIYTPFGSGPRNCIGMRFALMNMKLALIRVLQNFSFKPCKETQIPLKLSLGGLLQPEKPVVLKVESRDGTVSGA
RECORDED METRIC: IC50

# input Please state recorded IC50 (tested on Cytochrome P450 3A4 (Homo sapiens, UniProt P08684)) of O=C(Cn1cccnc1=O)Nc1ccc(C[C@@H]2CC[C@H]([C@H](O)c3ccccc3)N2)cc1
# output > 100 µM

----------
molecular target: Nuclear receptor subfamily 1 group I member 2 (Homo sapiens, UniProt O75469); experiment: Activation of human PX receptor
Sequence (O75469 whole entry): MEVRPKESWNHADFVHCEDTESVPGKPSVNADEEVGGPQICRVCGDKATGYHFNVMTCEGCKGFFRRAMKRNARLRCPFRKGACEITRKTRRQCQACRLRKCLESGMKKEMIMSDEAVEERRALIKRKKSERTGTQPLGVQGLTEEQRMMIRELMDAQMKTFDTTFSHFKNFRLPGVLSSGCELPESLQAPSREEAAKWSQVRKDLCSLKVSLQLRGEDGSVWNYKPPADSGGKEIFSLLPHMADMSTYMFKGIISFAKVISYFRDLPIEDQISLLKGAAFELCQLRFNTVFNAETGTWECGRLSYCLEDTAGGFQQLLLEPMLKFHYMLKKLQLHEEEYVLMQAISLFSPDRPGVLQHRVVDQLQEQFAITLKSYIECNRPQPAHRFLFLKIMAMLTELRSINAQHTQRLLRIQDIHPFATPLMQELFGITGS
pEC50: −log10 of the molar value.
RECORDED METRIC: pEC50

# input Consider the compound shown here: O=C(Nc1ccc(C[C@@H]2CC[C@H]([C@H](O)c3ccccc3)N2)cc1)[C@@H]1CCc2nccc(=O)n21 [VIBEGRON] What is its recorded pEC50?
# output < 4.52
